studySystem: TNK1 (Homo sapiens, UniProt Q13470)
Construct: purchased Eurofins DiscoverX KINOMEscan (scanTK)
Sequence (Q13470 1-666): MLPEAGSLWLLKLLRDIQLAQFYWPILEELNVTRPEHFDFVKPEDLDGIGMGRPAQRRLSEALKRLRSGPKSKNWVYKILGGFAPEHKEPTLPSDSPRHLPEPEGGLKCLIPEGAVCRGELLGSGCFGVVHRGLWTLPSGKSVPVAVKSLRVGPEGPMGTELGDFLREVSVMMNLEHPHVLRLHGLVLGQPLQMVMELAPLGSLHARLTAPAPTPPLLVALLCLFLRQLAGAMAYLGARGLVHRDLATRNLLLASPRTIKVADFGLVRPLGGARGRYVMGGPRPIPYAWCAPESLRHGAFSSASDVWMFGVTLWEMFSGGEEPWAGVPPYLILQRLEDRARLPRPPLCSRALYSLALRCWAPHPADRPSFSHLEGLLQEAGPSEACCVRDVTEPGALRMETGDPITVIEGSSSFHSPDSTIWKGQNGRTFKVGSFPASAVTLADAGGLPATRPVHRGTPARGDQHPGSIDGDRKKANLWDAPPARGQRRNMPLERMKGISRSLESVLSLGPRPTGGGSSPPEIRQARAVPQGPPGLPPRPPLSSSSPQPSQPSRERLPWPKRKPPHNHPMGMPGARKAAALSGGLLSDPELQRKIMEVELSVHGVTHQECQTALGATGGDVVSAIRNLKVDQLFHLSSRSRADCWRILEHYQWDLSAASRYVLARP
assayMethodText: KINOMEscan ScanTK
Format: binding
details: @1000nM, read-out: %Control
The entries below are paired with their reported remaining binding at 1 µM.
Enter your answer as a number in %; do not include the unit.

Please review the entries below; each comes with its answer.
Cc1cnc(S(C)(=O)=O)nc1N1CCCC(n2nc(-c3ccc(Oc4ccccc4)cc3)c3c(N)ncnc32)C1 (centres unmarked) : 91
C=CC(=O)N1CCC[C@@H](n2nc(-c3ccc(Oc4ccccc4)cc3)c3c(N)ncnc32)C1 [Compound 1g, Ibrutinib, reference compound] : 93
CCOC(=O)c1cnc(S(C)(=O)=O)nc1N1CCC[C@@H](n2nc(-c3ccc(Oc4ccccc4)cc3)c3c(N)ncnc32)C1 : 81
COC(=O)c1cnc(S(C)(=O)=O)nc1N1CCCC(n2nc(-c3ccc(Oc4ccccc4)cc3)c3c(N)ncnc32)C1 (centres unmarked) : 88

[Q] Please look up its remaining binding at 1 µM: CNC(=O)c1cnc(S(C)(=O)=O)nc1N1CCCC(n2nc(-c3ccc(Oc4ccccc4)cc3)c3c(N)ncnc32)C1 (centres unmarked)
[A] 97
